Quick list: protein stability index per entry.
B1: MCOLN1 (parent)
chain: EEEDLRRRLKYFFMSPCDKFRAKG

variants of: B1; test: protein stability index of a GFP-peptide fusion (GPS, HEK-293T) (PSI 1-6); higher = more stable; details: c terminus: a fixed tail appended;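 also: lentivirally expressed fusions sorted by FACS into six bins by GFP to DsRed ratio, PSI derived from sequencing read proportions per bin multiplied by bin number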
// print number alone

Record excerpt, results attached:
>>> observed_result("E1G")
2.46
>>> observed_result("E1P")
2.14

Here's the next entry for you.
Notebook: F12M , protein stability index read as 2.91

Hey, just so you know, these numbers are from the supplement of paper PMC10567573.
